Taken from the supplement of paper PMC7125110.

B1: glmS ribozyme (parent)
chain: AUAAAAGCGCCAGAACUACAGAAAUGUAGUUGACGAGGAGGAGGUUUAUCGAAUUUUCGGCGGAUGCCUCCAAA

Variants of: B1
test.description: self-cleavage kobs at 160 uM GlcN6P; higher = faster cleavage; RNA array
measurement.parameters: with glucosamine-6-phosphate
Fewer inactive variants are shown than the library holds.
Parameter: self-cleavage kobs at 160 uM GlcN6P. Scope: all listed entries.
Just the number in s⁻¹, nothing appended.

U69G C70G	3.61e-05

As a next step, examine the variant that follows.
Per the records, this variant ( U54A C71A ) has self-cleavage kobs at 160 uM GlcN6P equal to 0.000583
